system-name: WT HvExoI (Hordeum vulgare)
Sequence (Q9XEI3 entry or part of it): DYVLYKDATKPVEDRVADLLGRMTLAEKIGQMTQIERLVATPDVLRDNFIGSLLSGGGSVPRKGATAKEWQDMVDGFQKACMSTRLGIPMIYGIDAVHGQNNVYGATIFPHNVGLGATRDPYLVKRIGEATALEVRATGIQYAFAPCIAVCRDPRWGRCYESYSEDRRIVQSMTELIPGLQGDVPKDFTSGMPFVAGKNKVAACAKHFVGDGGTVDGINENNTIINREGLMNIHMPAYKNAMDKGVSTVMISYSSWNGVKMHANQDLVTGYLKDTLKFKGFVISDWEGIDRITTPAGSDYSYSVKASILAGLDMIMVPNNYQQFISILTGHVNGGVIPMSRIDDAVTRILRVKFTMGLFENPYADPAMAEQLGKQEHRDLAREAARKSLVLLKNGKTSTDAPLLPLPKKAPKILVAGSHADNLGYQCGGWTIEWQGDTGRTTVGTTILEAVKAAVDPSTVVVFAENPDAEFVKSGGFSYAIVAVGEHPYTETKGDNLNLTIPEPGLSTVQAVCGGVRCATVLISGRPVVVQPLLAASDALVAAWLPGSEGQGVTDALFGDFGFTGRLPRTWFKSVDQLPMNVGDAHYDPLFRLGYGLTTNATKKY
assay-procedure: Inhibition by thio-analogues using the 4NP-Glc substrate
experimental-conditions: Recombinant WT; apparent inhibition constant; 4NP-Glc substrate
pKi: −log10 of the molar value.

[
  {
    "compound": "CO[C@@H]1O[C@H](CO)[C@@H](S[C@@H]2O[C@H](CO)[C@@H](O)[C@H](O)[C@H]2O)[C@H](O)[C@H]1O [G4SG-OMe, methyl 4-thio-β-cellobioside]",
    "pKi": 3.00
  }
]
